Reported values: IC50 for human Bcl-xL (Homo sapiens, UniProt Q07817), one per item.

Reference set (2 entries):
NS(=O)(=O)c1ccc(CCNS(=O)(=O)c2ccc3c(c2)CN(C(=O)c2cc(S(=O)(=O)N4CCc5ccccc5C4)c(O)c(O)c2O)CC3)cc1 [TM-1210] : > 1 µM
O=C(c1ccc(Oc2ccccc2)cc1)c1cc(C(=O)c2ccc3ccccc3c2)c(O)c(O)c1O [TM-169] : > 1 µM

query: Which IC50 value belongs to O=C(c1cc(S(=O)(=O)N2CCc3ccccc3C2)c(O)c(O)c1O)N1CCc2ccc(S(=O)(=O)NCCc3ccccc3)cc2C1 [TM-197] ?
result: > 1 µM
